Biological target: T1, human NKp46 (human, UniProt O76036 22-304)
T1 construct: also called CD335; NCR1
T1 sequence (O76036 22-304 Q82K): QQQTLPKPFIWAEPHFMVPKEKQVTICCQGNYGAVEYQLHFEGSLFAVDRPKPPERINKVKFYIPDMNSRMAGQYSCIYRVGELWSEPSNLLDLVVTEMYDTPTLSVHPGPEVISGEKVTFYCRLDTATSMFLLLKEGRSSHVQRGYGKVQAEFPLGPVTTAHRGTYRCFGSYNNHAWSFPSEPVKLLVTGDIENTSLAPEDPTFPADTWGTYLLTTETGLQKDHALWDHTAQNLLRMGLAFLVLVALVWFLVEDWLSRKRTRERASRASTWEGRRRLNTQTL
Assay: flow cytometry, HEK293F cells transfected with human NKp46
Measurement Type: pKd
For clarity, pKd is expressed as the negative log10 of concentration in mol/L.

Recorded results for 2 binders are shown here.
Which pKd value belongs to NKp46-hz5D7v14-Fc* (Fc fusion, VHH-Fc fusion with an IgG1 Fc lacking a hinge (Fc*)) EVQLVESGGGEVQPGGSLRLSCAASGRTFASAAMGWFRQAPGKEREFVAAISRSDDTYYAESVKGRFTISRDNAKNTVYLQMSSLRAEDTAVYYCAAVVPTYGSSIYVHSAAYNYWGQGTLVTVKPGGGGPSVFLFPPKPKDTLMISRTPEVTCVVVDVSHEDPEVKFNWYVDGVEVHNAKTKPREEQYNSTYRVVSVLTVLHQDWLNGKEYKCKVSNKALPAPIEKTISKAKGQPREPQVYTLPPSRDELTKNQVSLTCLVKGFYPSDIAVEWESNGQPENNYKTTPPVLDSDGSFFLYSKLTVDKSRWQQGNVFSCSVMHEALHNHYTQKSLSLSPG ? 9.80

Same lookup for NKp46-hz5D7v15-Fc* (Fc fusion, VHH-Fc fusion with an IgG1 Fc lacking a hinge (Fc*)) EVQLVESGGGEVQPGGSLRLSCAASGRTFASAAMGWFRQAPGKEREFVAAISRSDDTYYAESVKGRFTISRDNAKNTVYLQMSSLRAEDTAVYYCAAVVPTYGNAIYVHSAAYNYWGQGTLVTVKPGGGGPSVFLFPPKPKDTLMISRTPEVTCVVVDVSHEDPEVKFNWYVDGVEVHNAKTKPREEQYNSTYRVVSVLTVLHQDWLNGKEYKCKVSNKALPAPIEKTISKAKGQPREPQVYTLPPSRDELTKNQVSLTCLVKGFYPSDIAVEWESNGQPENNYKTTPPVLDSDGSFFLYSKLTVDKSRWQQGNVFSCSVMHEALHNHYTQKSLSLSPG , please. 9.63

Field: next binder
Consider the binder NKp46-hz5D7v12-Fc* (Fc fusion, VHH-Fc fusion with an IgG1 Fc lacking a hinge (Fc*)) EVQLVESGGGEVQPGGSLRLSCAASGRTFASAAMGWFRQAPGKEREFVAAISRSDDTYYAESVKGRFTISRDNAKNTVYLQMSSLRAEDTAVYYCAAVVPTYGSNIYVHSAAYNYWGQGTLVTVKPGGGGPSVFLFPPKPKDTLMISRTPEVTCVVVDVSHEDPEVKFNWYVDGVEVHNAKTKPREEQYNSTYRVVSVLTVLHQDWLNGKEYKCKVSNKALPAPIEKTISKAKGQPREPQVYTLPPSRDELTKNQVSLTCLVKGFYPSDIAVEWESNGQPENNYKTTPPVLDSDGSFFLYSKLTVDKSRWQQGNVFSCSVMHEALHNHYTQKSLSLSPG and give its measured pKd. 9.85

Where these numbers come from: patent US20240376198A1
